These entries and their values trace back to paper PMC10311653.

Target system: T1, wildtype (WT) human interleukin-1β (Homo sapiens, UniProt P01584)
T1 construct: human interleukin-1β (hIL-1β); pET28a vector; also called WT hIL-1β; hIL-1β; source: E. coli BL21 (DE3), purified (Ni-NTA, Superdex 75 SEC)
Protocol text: ELISA; antigen (100 ng) coated on the plate; scFv-mFc added in 3% skim milk in DPBST, 2 h at 37 °C; EC50
Run parameters: both partners purified
Metric: pEC50
For clarity, pEC50 is expressed as the negative log10 of concentration in mol/L.

Consider the reported pEC50 for these binders:
Could you share which pEC50 value was measured for E64Kcr-G9-mFc (Fc fusion, mouse, as the scFv of m27; source: HEK 293F, transfected, purified (Protein A, Superdex 200 SEC)) VH: EVQLVESGGGLVQPGGSRKLSCAASGFTFSSFGMHWVRQAPEKGLEWVAYISSGSSTIYYADTVKGRFTISRDNPKNTLFLQMTSLRSEDTAMYYCARDDYDVRAYAMDYWGQGTSVTVSS VL: DIQMIQSPASLSASVGETVTITCRASQNIYSYLAWYQQKQGKSPQLLVYNAKTLAEGVPSRFSGSGSGTQFSLKINSLQPEDFGSYYCQHHYGTPLTFGAGTKLELK ?
9.71

// repeat for E64Kcr-A5-mFc (Fc fusion, mouse, as the scFv of m25; source: HEK 293F, transfected, purified (Protein A, Superdex 200 SEC)) VH: EVQLVESGGGLVQPGGSRKLSCAASGFTFSSFGMHWVRQAPEKGLEWVAYISSGSYTIYYADTVKGRFTISRDNPKNTLFLQMTSLRSEDTAMYYCTRDDYDVRAYAMDYWGQGTSVTVSS VL: DIVMTQPSSSFSVSLGDRVTITCKASEDIYNRLAWYQQKPGNAPRLLISGATTLETGVPSRFSGSGSGKDYTLTITSLQTEDVATYYCQQYWSTPLTFGAGTKLELK and report
10.47

// repeat for E64Kcr-B9-mFc (Fc fusion, mouse, as the scFv of m30; source: HEK 293F, transfected, purified (Protein A, Superdex 200 SEC)) VH: EVQLQQSGAELVKPGASVKLSCTASGFNIKDTYMHWVKQRPEQGLEWIGRIDPANGNTKYDPKFQGKATITADTSSNTAYLQLSSLTSEDTAVYYCAIHYYGSLPVWGAGTTVTVSS VL: GIVMTQSHKFMSTSVGDRVSITCKASQDVGTAVAWYQQKPGQSPKLLIYWASTRHTGVPDRFTGSGSGTDFTLTISNVQSEDLADYFCQQYSSYPLTFGAGTMLELK and report
10.40

More entries:
Could you share which pEC50 value was measured for E64Kcr-A4-mFc (Fc fusion, mouse, as the scFv of m29; source: HEK 293F, transfected, purified (Protein A, Superdex 200 SEC)) VH: EVKLEESGGGLVQPGGSMKLSCVASGFTFSNYWMNWVRQSPEKGLEWVAEIRLKSNNYATPYAESVKGRFTISRDDSKSSVYLQMNNLRAEDTGIYYCTRGGIFLAYWGQGTLVTVSA VL: DIQLTQPTSSLSASLGDRVTISCRASQDISNYLNWYQQKPDGTVKLLIYYTSRLHSGVPSRFSGSGSGTDYSLTISNLEQEDIATYFCQQGNTLPYTFGGGTKLELK ?
9.92
